- Test system: RXF 393 renal
- assayMethodText: NCI tumour cell line growth inhibition, 48 h
Reported values of TGI for individual entries
All answers are understood in µM, so give the number only.

Which TGI value belongs to C/C(=C\C(=N\NC(=N)N)c1ccccc1)c1ccccc1 ?
8.42

Which TGI value belongs to CCCC[C@H]1C(=O)O[C@H](C)[C@H](NC(=O)c2cccc(NC=O)c2OC)C(=O)O[C@@H](C)[C@@H]1OC(=O)CC(C)C (tested in a mixture with another compound) ?
34.6

Which TGI value belongs to N#Cc1c(-c2ccc(Cl)cc2)c2c([nH]c1=O)-c1cc([N+](=O)[O-])ccc1CCC2 ?
37.6

Which TGI value belongs to O=C1CS(=O)(=O)C(c2cccc(Oc3ccccc3)c2)N1C1CC1 (stereo unspecified) ?
55.1

Which TGI value belongs to CC1=CC(=O)N(n2c(Cc3ccc(Cl)cc3)n[nH]c2=O)C1=O ?
53.1

Which TGI value belongs to Cc1ccsc1C(=S)Nc1ccc(Cl)c(/C=N/OC(C)C)c1 ?
69.4

Which TGI value belongs to CN(C)Cc1c(C(=O)NCCOc2ccc(C(=O)NO)cc2)oc2ccccc12 ?
0.643

Which TGI value belongs to Cc1cc(S(=O)(=O)NC(=NCCc2ccccc2)NN)c(S)cc1Cl ?
64.7

Which TGI value belongs to C=CC(=O)N1CC[C@H](n2nc(C#Cc3cc(OC)cc(OC)c3)c3c(N)ncnc32)C1 ?
4.48

Which TGI value belongs to Cc1cccc(Cl)c1NC(=O)c1cnc(Nc2cc(N3CCOCC3)cc(S(C)(=O)=O)c2)s1 ?
0.994

Which TGI value belongs to CCOC(=O)C12CC(C)=C(C)CC1CCCc1ccccc12 (stereo unspecified) ?
43.1
